target: CYP2C9 (Homo sapiens, UniProt P11712); test: Inhibition of CYP2C9 (unknown origin) at 10 uM relative to control; assay type: ADME
Sequence (P11712 whole entry): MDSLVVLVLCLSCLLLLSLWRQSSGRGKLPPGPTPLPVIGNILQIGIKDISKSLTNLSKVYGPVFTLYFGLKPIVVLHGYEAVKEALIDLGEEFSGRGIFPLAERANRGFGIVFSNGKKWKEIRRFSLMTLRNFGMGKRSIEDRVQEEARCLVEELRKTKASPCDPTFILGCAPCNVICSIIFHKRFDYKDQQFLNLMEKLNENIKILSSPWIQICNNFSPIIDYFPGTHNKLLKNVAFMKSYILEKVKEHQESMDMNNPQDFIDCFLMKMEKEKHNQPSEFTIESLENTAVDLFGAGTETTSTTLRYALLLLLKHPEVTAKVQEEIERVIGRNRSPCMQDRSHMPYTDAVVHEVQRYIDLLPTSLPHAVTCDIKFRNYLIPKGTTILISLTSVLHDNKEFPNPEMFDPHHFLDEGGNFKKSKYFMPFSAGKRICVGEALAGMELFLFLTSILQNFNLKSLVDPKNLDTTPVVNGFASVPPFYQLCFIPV
metric: inhibition at 10 µM

Query string: Answer with the recorded inhibition at 10 µM of `CC1(C)C(=O)N(c2ccc(NCCNC3CCOCC3)cc2)c2cc(Cl)ccc2-c2cc(Cl)cnc21` only.
Result string: < 50%

###

assay: Solubility of the compound in JP2 buffer at pH 6.8; assay type: physicochemical
metric: solubility (µg/mL)
Answers are plain numbers, in µg/mL.

- compound: "CC1(C)C(=O)N(c2ccc(NCCNC3CCOCC3)cc2)c2cc(F)ccc2-c2cc(Cl)cnc21"
  unitText: "µg/mL"
  solubility: 380
- compound: "COc1ccc2c(c1)N(c1ccc(NCCNC3CCOCC3)cc1)C(=O)C(C)(C)c1ncc(Cl)cc1-2"
  unitText: "µg/mL"
  solubility: 3.8
- compound: "CC1(C)C(=O)N(c2ccc(NCCNC3CCOCC3)cc2)c2cc(Cl)ccc2-c2ccccc21"
  unitText: "µg/mL"
  solubility: 9.1
- compound: "Cc1cnc2c(c1)-c1ccc(Cl)cc1N(c1ccc(NCCNC3CCOCC3)cc1)C(=O)C2(C)C"
  unitText: "µg/mL"
  solubility: 510
- compound: "CC1(C)C(=O)N(c2ccc(NCCNC3CCOCC3)cc2)c2cc(C#N)ccc2-c2cc(Cl)cnc21"
  unitText: "µg/mL"
  solubility: 720
- compound: "CC1(C)C(=O)N(c2ccc(NCCNC3CCOCC3)cc2)c2cc(Cl)ccc2-c2cc(Cl)ccc21"
  unitText: "µg/mL"
  solubility: 4.7
- compound: "CC1(C)C(=O)N(c2ccc(NCCNC3CCOCC3)cc2)c2cc(Cl)ccc2-c2cc(F)cnc21"
  unitText: "µg/mL"
  solubility: 470
- compound: "CC1(C)C(=O)N(c2ccc(NCCNC3CCOCC3)cc2)c2cc(Cl)ccc2-c2cc(Cl)cnc21"
  unitText: "µg/mL"
  solubility: 77

API: the following record is the query input.
Query string: Give a short answer stating reported solubility for `Cc1ccc2c(c1)N(c1ccc(NCCNC3CCOCC3)cc1)C(=O)C(C)(C)c1ncc(Cl)cc1-2` .
Result string: 24

###

assay: Elimination half life in Sprague-Dawley rat at 5 mg/kg, po by LC-MS/MS analysis; format: ADME, organism-based; details: in vivo, read-out: BBB (converted)
metric: half-life (min)
Numbers only, in min.

Query string: For `CC1(C)C(=O)N(c2ccc(NCCNC3CCOCC3)cc2)c2cc(Cl)ccc2-c2cc(Cl)cnc21` , write its half-life.
Result string: 786

###

assay: 1-Octanol/PBS buffer distribution coefficient, log D of the compound at pH 7.4; assay type: physicochemical
metric: logD
Give bare numbers.

Query string: Note logD for the molecule shown: `CC1(C)C(=O)N(c2ccc(NCCNC3CCOCC3)cc2)c2cc(Cl)ccc2-c2cc(Cl)cnc21`
Result string: 3.5

###

Hi there, I'd appreciate the recorded IC50 for every entry that follows.
molecular target: Parathyroid hormone/parathyroid hormone-related peptide receptor (Homo sapiens); experiment: Antagonist activity at PTHR1 (unknown origin) expressed in CHOK1 cells co-expressing Gs/Gq assessed as reduction in human PTH (1 to 34 residues)-induced cAMP level incubated for 30 mins
Sequence (Q03431 whole entry, the tested form may be a part): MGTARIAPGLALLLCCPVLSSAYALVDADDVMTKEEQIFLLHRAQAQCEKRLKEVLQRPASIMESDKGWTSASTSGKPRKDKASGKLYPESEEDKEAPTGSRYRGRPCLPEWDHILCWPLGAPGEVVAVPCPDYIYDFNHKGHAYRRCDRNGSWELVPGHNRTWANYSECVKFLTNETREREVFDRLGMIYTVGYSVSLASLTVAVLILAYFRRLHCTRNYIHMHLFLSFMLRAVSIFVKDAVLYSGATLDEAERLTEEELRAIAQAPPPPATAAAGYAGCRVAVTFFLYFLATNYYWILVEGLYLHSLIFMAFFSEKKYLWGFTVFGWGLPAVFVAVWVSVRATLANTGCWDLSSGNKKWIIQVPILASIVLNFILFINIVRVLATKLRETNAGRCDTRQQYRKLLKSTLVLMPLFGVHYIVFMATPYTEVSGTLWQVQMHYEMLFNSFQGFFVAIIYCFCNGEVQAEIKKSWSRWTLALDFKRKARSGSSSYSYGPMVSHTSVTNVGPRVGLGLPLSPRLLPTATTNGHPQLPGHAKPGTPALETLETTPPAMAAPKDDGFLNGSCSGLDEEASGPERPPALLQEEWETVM
Numbers only, in µM.

For every record below, what is its IC50?
1. CC1(C)C(=O)N(c2ccc(NCCNC3CCOCC3)cc2)c2cc(Cl)ccc2-c2ccccc21
2. CC(C)N1N=C(C2CCCCC2)c2ccc(Cl)cc2N(c2ccc(NCCNC3CCOCC3)cn2)C1=O
3. CC1(C)C=C(C2CCCCC2)c2ccc(C#N)cc2N(c2ccc(NCCNC3CCOCC3)cc2)C1=O
4. CC1(C)C=C(C2CCCCC2)c2ccc(Cl)cc2N(c2ccc(NCCNC3CCOCC3)cc2)C1=O

Result string:
3.2
4.37
8.8
0.97

###

Target: CYP1A2 (Homo sapiens, UniProt P05177)
Sequence (P05177 whole entry): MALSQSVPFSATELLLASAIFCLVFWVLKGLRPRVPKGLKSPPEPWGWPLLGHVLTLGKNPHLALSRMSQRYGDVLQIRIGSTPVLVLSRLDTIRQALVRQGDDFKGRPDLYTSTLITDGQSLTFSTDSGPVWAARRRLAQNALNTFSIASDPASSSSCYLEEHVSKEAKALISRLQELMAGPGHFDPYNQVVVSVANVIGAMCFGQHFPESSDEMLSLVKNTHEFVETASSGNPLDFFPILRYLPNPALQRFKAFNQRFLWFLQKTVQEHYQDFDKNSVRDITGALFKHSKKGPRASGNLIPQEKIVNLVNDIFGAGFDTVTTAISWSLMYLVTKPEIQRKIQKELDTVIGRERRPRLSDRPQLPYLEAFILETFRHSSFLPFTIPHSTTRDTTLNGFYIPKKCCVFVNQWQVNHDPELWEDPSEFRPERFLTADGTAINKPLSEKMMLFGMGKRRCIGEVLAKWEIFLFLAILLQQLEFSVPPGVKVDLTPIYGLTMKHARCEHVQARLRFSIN
Assay: Inhibition of CYP1A2 (unknown origin) at 10 uM relative to control
Assay type: ADME
metric: inhibition at 10 µM

Query string: State the measured inhibition at 10 µM (CYP1A2 (Homo sapiens, UniProt P05177)) of `CC1(C)C(=O)N(c2ccc(NCCNC3CCOCC3)cc2)c2cc(Cl)ccc2-c2cc(Cl)cnc21`
Result string: < 50%

###

target: CYP2C19 (Homo sapiens, UniProt P33261); test: Inhibition of CYP2C19 (unknown origin) at 10 uM relative to control; type: ADME
Sequence (P33261 whole entry): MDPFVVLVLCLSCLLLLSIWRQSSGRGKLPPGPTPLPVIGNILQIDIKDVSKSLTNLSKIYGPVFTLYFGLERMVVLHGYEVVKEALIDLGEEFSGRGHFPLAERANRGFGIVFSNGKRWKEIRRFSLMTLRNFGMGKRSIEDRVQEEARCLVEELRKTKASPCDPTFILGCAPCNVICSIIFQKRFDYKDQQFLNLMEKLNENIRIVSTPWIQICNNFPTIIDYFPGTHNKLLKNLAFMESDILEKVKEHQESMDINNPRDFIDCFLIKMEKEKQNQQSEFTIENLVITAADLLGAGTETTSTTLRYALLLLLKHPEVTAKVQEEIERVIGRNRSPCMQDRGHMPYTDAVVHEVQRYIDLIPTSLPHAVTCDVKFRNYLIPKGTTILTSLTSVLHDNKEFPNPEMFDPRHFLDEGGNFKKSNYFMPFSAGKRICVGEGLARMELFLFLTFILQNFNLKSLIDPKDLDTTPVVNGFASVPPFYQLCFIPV
metric: inhibition at 10 µM

Query string: Indicate its recorded inhibition at 10 µM; the compound in question is `CC1(C)C(=O)N(c2ccc(NCCNC3CCOCC3)cc2)c2cc(Cl)ccc2-c2cc(Cl)cnc21`
Result string: < 50%

###

biological target: CYP3A4 (Homo sapiens, UniProt P08684); assay: Inhibition of CYP3A4 (unknown origin) at 10 uM relative to control; type: ADME
Sequence (P08684 whole entry): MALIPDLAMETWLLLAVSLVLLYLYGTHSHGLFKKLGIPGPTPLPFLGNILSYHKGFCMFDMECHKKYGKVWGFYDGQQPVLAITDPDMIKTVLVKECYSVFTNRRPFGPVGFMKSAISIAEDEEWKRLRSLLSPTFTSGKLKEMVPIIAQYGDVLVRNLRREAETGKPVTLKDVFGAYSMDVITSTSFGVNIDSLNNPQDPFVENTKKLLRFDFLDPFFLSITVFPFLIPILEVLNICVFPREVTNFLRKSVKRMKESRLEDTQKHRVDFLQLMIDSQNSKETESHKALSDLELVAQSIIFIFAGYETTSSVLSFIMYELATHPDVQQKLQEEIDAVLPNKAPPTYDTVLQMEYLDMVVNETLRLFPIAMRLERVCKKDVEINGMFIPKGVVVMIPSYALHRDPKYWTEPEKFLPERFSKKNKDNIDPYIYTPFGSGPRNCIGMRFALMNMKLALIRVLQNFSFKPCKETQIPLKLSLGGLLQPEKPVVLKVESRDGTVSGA
metric: inhibition at 10 µM

Query string: Name the recorded inhibition at 10 µM of the molecule listed here: `CC1(C)C(=O)N(c2ccc(NCCNC3CCOCC3)cc2)c2cc(Cl)ccc2-c2cc(Cl)cnc21`
Result string: < 50%

###

assay: Drug degradation in HCL/CH2Cl2 by TLC analysis; assay type: physicochemical; settings: read-out: Drug degradation
metric: degraded (%)
Answers are plain numbers, in %.

Query string: Tell me degraded reported for `CC1(C)N=C(C2CCCCC2)c2ccc(C#N)cc2N(c2ccc(NCCNC3CCOCC3)cc2)C1=O`
Result string: 100

###

test: Metabolic stability in rat liver microsomes assessed as parent compound remaining at 1 uM in presence of NADPH generating system measured after 20 mins by LC-MS/MS analysis; format: ADME, Microsome; conditions: read-out: Stability
metric: remaining at 20 min, 1 µM (%)
One number for each entry, in %.

- compound: "CC1(C)N=C(C2CCCCC2)c2ccc(C#N)cc2N(c2ccc(NCCNC3CCOCC3)cc2)C1=O"
  unitText: "%"
  remaining at 20 min, 1 µM: 28
- compound: "Cc1ccc2c(c1)N(c1ccc(NCCNC3CCOCC3)cc1)C(=O)C(C)(C)c1ncc(Cl)cc1-2"
  unitText: "%"
  remaining at 20 min, 1 µM: 52
- compound: "CC1(C)C(=O)N(c2ccc(NCCNC3CCOCC3)cc2)c2cc(C#N)ccc2-c2cc(Cl)cnc21"
  unitText: "%"
  remaining at 20 min, 1 µM: 34
- compound: "Cc1cnc2c(c1)-c1ccc(Cl)cc1N(c1ccc(NCCNC3CCOCC3)cc1)C(=O)C2(C)C"
  unitText: "%"
  remaining at 20 min, 1 µM: 62

Record remaining at 20 min, 1 µM for all entries; do not skip any.
1. CC1(C)C(=O)N(c2ccc(NCCNC3CCOCC3)cc2)c2cc(Cl)ccc2-c2cc(Cl)cnc21
2. CC1(C)C=C(C2CCCCC2)c2ccc(Cl)cc2N(c2ccc(NCCNC3CCOCC3)cc2)C1=O
3. CC1(C)C(=O)N(c2ccc(NCCNC3CCOCC3)cc2)c2cc(Cl)ccc2-c2ccccc21
4. CC1(C)C(=O)N(c2ccc(NCCNC3CCOCC3)cc2)c2cc(F)ccc2-c2cc(Cl)cnc21

Result string:
1. 65
2. 58
3. 21
4. 42

# per-item lookup of remaining at 20 min, 1 µM; items listed below
1. CC1(C)C(=O)N(c2ccc(NCCNC3CCOCC3)cc2)c2cc(Cl)ccc2-c2cc(F)cnc21
2. CC1(C)C(=O)N(c2ccc(NCCNC3CCOCC3)cc2)c2cc(Cl)ccc2-c2cc(Cl)ccc21
3. CC1(C)C=C(C2CCCCC2)c2ccc(C#N)cc2N(c2ccc(NCCNC3CCOCC3)cc2)C1=O
4. COc1ccc2c(c1)N(c1ccc(NCCNC3CCOCC3)cc1)C(=O)C(C)(C)c1ncc(Cl)cc1-2

Result string:
[19, 75, 97, 59]
